ASSAYED_SYSTEM: 14-3-3σ (Homo sapiens)
ASSAY_COMMENT: Intact mass spectrometry assay, apo (no peptide)
Format: binding
Set-up: full-length for mass spectrometry and fluorescence anisotropy assays; made in house; host or cells: E. coli Rosetta 2(DE3)pLysS, pPROEX HTb vector
CONDITION_INFO: 1 μM compound, 100 nM 14-3-3σ, 16 h
MEASUREMENT_NAME: % bound, APO, 16h (%)

O=C(CCl)N1CC2CC1CN2S(=O)(=O)c1ccc(Br)c(F)c1 (stereo not drawn) [Compound 58] : 28

[a] N#Cc1ccc(S(=O)(=O)N2CCC(CNC(=O)CCl)CC2)cc1 [Compound 20]
[b] O=C(CCl)NCC1CCN(S(=O)(=O)c2ccccc2)CC1 [Compound 10]
Quick one: lower % bound, APO, 16h, a or b ? Reply with the label of the item you choose.
a
(a: 1.5%, b: 4.7%)

[P] O=C(CCl)NCC1CCN(S(=O)(=O)c2cc(F)c(Br)cc2F)CC1 [Compound 39]
[Q] O=C(CCl)NCC1CCN(S(=O)(=O)c2ccc(OC(F)(F)F)cc2)CC1 [Compound 19]
Of P and Q , which one carries the higher reported % bound, APO, 16h? Respond using the label that marks the chosen record.
P
(P: 3.8%, Q: 2.5%)

====

ASSAYED_SYSTEM: 14-3-3σ (Homo sapiens, UniProt P31947)
ASSAY_COMMENT: Intact mass spectrometry assay, apo (no peptide)
Assay type: binding
Design: full-length for mass spectrometry and fluorescence anisotropy assays; made in house; host or cells: E. coli Rosetta 2(DE3)pLysS, pPROEX HTb vector
CONDITION_INFO: 1 μM compound, 100 nM 14-3-3σ, 24 h
MEASUREMENT_NAME: % bound, APO, 24h (%)

Would you please look over these solved cases?
CC1(CNC(=O)CCl)CCN(S(=O)(=O)c2ccc(Br)c(F)c2)CC1 : 8.2
O=C(CCl)NCC1CCN(S(=O)(=O)c2ccc(Cl)nc2)CC1 : 15
COc1ccc(S(=O)(=O)N2CCC(CNC(=O)CCl)CC2)cc1 : 13.8
O=C(CCl)NCC1CCN(S(=O)(=O)Cc2cccc(F)c2)CC1 : 2.9
COc1ccc(S(=O)(=O)N2CCC(CNC(=O)CCl)CC2)cc1F : 0.9
O=C(CCl)NCC1CCN(S(=O)(=O)c2cccc(F)c2)CC1 : 2.9

[1] O=C(CCl)N1CC2(CCN(S(=O)(=O)c3ccc(Br)c(F)c3)CC2(F)F)C1
[2] O=C(CCl)NCC1CCN(S(=O)(=O)c2cccc(C(F)(F)F)c2)CC1
Sorting ascending by % bound, APO, 24h, which comes first: 1 or 2 ? // output: label of the selected item
2

[P] O=C(CCl)NCC1CCN(S(=O)(=O)c2ccc(OC(F)(F)F)cc2)CC1
[Q] O=C(CCl)N1CC2(CCN(S(=O)(=O)c3ccc(Br)c(F)c3)CC2)C1
[R] O=C(CCl)N1CC2(CC(NS(=O)(=O)c3ccc(Br)c(F)c3)CO2)C1 (stereo not drawn)
[S] O=C(CCl)N1CC[C@]2(CCN(S(=O)(=O)c3ccc(Br)c(F)c3)C2)C1
Reorder: % bound, APO, 24h, max to min. Return the labels ranked in the requested order, please.
S, R, Q, P

====

ASSAYED_SYSTEM: 14-3-3σ (Homo sapiens)
Sequence (P31947 1-248): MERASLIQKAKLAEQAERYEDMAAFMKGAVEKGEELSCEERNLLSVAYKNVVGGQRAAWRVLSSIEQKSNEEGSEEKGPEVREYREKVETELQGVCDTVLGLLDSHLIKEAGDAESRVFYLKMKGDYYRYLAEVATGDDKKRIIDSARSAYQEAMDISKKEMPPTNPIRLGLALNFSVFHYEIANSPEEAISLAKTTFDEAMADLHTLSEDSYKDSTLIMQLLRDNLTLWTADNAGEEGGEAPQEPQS
ASSAY_COMMENT: Intact mass spectrometry assay, apo (no peptide)
Assay type: binding
Design: full-length for mass spectrometry and fluorescence anisotropy assays; made in house; host or cells: E. coli Rosetta 2(DE3)pLysS, pPROEX HTb vector
CONDITION_INFO: 1 μM compound, 100 nM 14-3-3σ, 1 h
Protocol: In analogy to our previous work, two orthogonal assays were used for screening (Figure S2). […] Additionally, the compounds were tested in a fluorescence anisotropy (FA) assay in the presence of the 5-carboxyfluorescein-(FAM)-labeled C-RAF259 peptide. […] For FA experiments, the EC50 values from the overnight measurement were calculated and plotted as bar graphs showing the […] log EC50 value (pEC50). […]
MEASUREMENT_NAME: % bound, APO, 1h (%)

O=C(CCl)NCC1CCN(S(=O)(=O)c2ccc(F)c(F)c2)CC1 : 1.9
Cc1ccc(S(=O)(=O)N2CCC(CNC(=O)CCl)CC2)cc1 : 0
O=C(CCl)NCc1ccc(NS(=O)(=O)c2ccc(Br)c(F)c2)cc1 : 0

[P] O=C(CCl)NC1CC2(CCN(S(=O)(=O)c3ccc(Br)c(F)c3)CC2)C1
[Q] O=C(CCl)N1CC2(CC(NS(=O)(=O)c3ccc(Br)c(F)c3)C2)C1
Given the two records P and Q , choose the one whose % bound, APO, 1h value is lower. Your answer should be the label attached to the chosen record.
P
(P: 0%, Q: 9.9%)
